Where do the numbers come from? From BindingDB's records for patent US12378192.

# system: Cytochrome P450 3A4 (Homo sapiens, UniProt P08684)
# Sequence (P08684 whole entry): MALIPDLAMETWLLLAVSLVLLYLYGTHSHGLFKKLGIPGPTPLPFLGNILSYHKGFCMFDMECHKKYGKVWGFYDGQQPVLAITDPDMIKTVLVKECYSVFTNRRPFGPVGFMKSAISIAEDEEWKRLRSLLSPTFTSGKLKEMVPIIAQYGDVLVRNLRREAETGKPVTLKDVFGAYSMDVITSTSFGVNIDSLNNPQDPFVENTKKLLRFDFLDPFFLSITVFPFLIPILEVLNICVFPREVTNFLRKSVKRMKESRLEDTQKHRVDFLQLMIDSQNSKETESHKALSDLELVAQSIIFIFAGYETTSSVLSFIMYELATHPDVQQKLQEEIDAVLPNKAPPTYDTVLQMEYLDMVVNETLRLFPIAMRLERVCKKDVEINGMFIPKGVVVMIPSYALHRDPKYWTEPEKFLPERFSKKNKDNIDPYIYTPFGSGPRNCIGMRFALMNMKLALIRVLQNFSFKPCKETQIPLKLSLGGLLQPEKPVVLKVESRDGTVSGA
# experimental.details: CYP450 Enzyme Induction Study
pIC50: −log10 of the molar value.
quantity.measured: pIC50

> print(dat)
                                   compound                                    system  result
1  Cc1c(C(=O)Nc2ccc(F)c(C#N)c2)c(C)n(C)c1C(=O)C(=O)NC(C)C(F)(F)F (stereo unspecified) [US12378192, Compound of formula I]  Cytochrome P450 3A4 (Homo sapiens, UniProt P08684)  < 3.70
